ASSAY SYSTEM: Ephrin type-B receptor 4 (Homo sapiens)
Sequence (P54760 whole entry): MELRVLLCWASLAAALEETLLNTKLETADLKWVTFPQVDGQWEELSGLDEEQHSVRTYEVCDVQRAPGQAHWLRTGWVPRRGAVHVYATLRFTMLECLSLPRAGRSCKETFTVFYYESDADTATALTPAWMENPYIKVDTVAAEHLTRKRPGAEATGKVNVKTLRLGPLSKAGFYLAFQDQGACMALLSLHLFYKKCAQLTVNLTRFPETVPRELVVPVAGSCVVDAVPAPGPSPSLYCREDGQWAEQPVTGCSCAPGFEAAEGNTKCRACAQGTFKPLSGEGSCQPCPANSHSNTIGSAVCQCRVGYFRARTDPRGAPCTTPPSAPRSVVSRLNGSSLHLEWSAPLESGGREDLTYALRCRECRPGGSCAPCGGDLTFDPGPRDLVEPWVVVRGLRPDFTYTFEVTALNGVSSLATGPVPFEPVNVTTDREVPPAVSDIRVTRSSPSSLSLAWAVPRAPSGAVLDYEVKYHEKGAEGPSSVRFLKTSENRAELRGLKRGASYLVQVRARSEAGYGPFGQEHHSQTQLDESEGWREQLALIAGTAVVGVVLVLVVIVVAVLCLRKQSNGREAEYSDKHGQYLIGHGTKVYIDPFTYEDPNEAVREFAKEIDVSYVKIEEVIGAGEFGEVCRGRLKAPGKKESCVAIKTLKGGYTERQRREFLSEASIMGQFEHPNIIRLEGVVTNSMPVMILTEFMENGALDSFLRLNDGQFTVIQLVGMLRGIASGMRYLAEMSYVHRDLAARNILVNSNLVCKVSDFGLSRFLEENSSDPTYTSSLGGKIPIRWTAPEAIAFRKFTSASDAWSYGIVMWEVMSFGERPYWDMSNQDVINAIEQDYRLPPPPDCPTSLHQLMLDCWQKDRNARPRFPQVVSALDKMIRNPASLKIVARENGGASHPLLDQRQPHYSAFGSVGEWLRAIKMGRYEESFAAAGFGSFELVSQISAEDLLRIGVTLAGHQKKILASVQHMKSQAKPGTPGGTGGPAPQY
MEASURED METRIC: IC50

[
  {
    "COMPOUND STRING": "O=C1c2oc(-c3ccc(Cl)cc3)cc2Cc2cc(N3CCNCC3)ccc2N1Cc1ccccc1-c1cccnc1",
    "EXPERIMENTAL RESULT": "> 30 µM"
  }
]

Every entry's value here was drawn from ChEMBL document CHEMBL2384992.
